The measured values listed here are drawn from patent US20090214558A1.

target under test: T1, MAdCAM (analyte of the BIAcore experiment) (UniProt Q13477 19-317)
T1 construct: The antibodies are called anti-hMAdCAM; also called Mucosal addressin cell adhesion molecule
T1 sequence (looked up): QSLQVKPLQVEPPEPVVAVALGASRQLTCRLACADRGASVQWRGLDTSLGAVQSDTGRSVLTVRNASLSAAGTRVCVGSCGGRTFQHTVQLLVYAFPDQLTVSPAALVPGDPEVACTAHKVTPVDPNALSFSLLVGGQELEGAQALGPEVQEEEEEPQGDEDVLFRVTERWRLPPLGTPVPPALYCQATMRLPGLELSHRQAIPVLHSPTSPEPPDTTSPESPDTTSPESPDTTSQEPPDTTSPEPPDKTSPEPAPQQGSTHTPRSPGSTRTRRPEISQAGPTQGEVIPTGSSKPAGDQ
assay info: BIAcore (SPR); antibody immobilised, MAdCAM injected
recorded metric: Kd

7.16.6_LVS (antibody, human IgG2, kappa, V domains shown, Recombinant, from transiently transfected FreeStyle HEK293 cells) VH: QVQLVQSGAEVKKPGASVKVSCKASGYTFTSYGINWVRQAPGQGLEWMGWISVYSGNTNYAQKLQGRVTMTADTSTSTAYMDLRSLRSDDTAVYYCAREGSSSSGDYYYGMDVWGQGTTVTVSS VL: DIVMTQTPLSLSVTPGQPASISCKSSQSLLHTDGTTYLYWYLQKPGQPPQLLIYEVSNRFSGVPDRFSGSGSGTDFTLKISRVEAEDVGVYYCMQSIQLPWTFGQGTKVEIKR
119 pM
7.16.6_S (antibody, human IgG2, kappa, V domains shown, Recombinant, from transiently transfected FreeStyle HEK293 cells; also called 7.16.6-5; 7.16.6_5) VH: QVQLVQSGAEVKKPGASVKVSCKASGYTFTSYGINWVRQAPGQGLEWMGWISVYSGNTNYAQKVQGRVTMTADTSTSTAYMDLRSLRSDDTAVYYCAREGSSSSGDYYYGMDVWGQGTTVTVSS VL: DIVMTQTPLSLSVTPGQPASISCKSSQSLLHTDGTTYLYWYLQKPGQPPQLLIYEVSNRFSGVPDRFSGSGSGTDFTLKISRVEAEDVGIYYCMQSIQLPWTFGQGTKVEIKR
23.2 pM
7.16.6_V (antibody, human IgG2, kappa, V domains shown, Recombinant, from transiently transfected FreeStyle HEK293 cells; also called 7.16.6_V adduct) VH: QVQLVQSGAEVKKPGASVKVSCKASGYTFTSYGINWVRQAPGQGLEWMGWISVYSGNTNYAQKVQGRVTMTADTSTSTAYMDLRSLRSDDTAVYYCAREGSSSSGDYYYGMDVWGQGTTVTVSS VL: DIVMTQTPLSLSVTPGQPASISCKSSQSLLHTDGTTYLYWYLQKPGQPPQLLIYEVSNRFSGVPDRFSGSGSGTDFTLKISRVEAEDVGVYYCMQNIQLPWTFGQGTKVEIKR
162 pM

Now let's try a different one.
Measured Kd, 7.16.6_VS (antibody, human IgG2, kappa, V domains shown, Recombinant, from transiently transfected FreeStyle HEK293 cells; also called 7.16.6_VS adduct) VH: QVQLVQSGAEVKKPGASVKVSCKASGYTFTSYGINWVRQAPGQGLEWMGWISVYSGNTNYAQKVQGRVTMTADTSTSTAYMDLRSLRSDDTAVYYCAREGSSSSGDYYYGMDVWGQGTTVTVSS VL: DIVMTQTPLSLSVTPGQPASISCKSSQSLLHTDGTTYLYWYLQKPGQPPQLLIYEVSNRFSGVPDRFSGSGSGTDFTLKISRVEAEDVGVYYCMQSIQLPWTFGQGTKVEIKR : 90.8 pM
